Reference source for all entries: PubChem BioAssay AID1963438

Hi there, I'd appreciate the recorded pIC50 for every entry that follows.
# Test system: NCI-H510 multicellular tumor spheroid growth, % test/control
# experiment: Anticancer human tumor NCI-H510 cell line growth inhibition [Asc];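 also: spheroids exposed to agents for 7 days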
# experimental.setup: curve of first compound; second compound 0.949 µM
Just the number, please; pIC50 means minus log10 of the concentration in mol/L.

Prompt line: Record request: pIC50 value, item C=C(F)C(=O)N1CCN(c2nc(OCC3CCCN3C)nc3c2CCN(c2cccc4cccc(Cl)c24)C3)CC1CC#N (centres undefined) + CCN1C(C(=O)NC23CCC(C(=O)O)(CC2)CC3)C(c2cccc(Cl)c2F)C2(C(=O)Nc3cc(Cl)ccc32)C12CCCCC2
Response line: 6.14

Prompt line: Record request: pIC50 value, item O=C(c1cc(Cc2n[nH]c(=O)c3ccccc23)ccc1F)N1CCN(C(=O)C2CC2)CC1 + CCN1C(C(=O)NC23CCC(C(=O)O)(CC2)CC3)C(c2cccc(Cl)c2F)C2(C(=O)Nc3cc(Cl)ccc32)C12CCCCC2
Response line: 5.58
